- Test system: HCT116 cells
- METHOD: MTT assay
- Format: cell-based
- ASSAY_CONTEXT: Homo sapiens, HCT-116, 72 h, Table 5F; HCT116 cells, 72 hours
- Description: HCT116 cells (2000/well) were plated into 96-well tissue culture plates one day before compound treatment. Compounds at various concentrations were added to the cells. The cells were incubated for 72 hours at 37° C. in 5% CO2 incubator. […]
VALUE_TYPE: IC50 (nM)

Below, each entry is followed by its recorded IC50 result.
MOL: COc1ccc(-c2cc(Cl)nc(NCc3ccc(C(=O)Nc4ccccc4N)cc3)n2)cc1OC
STUDY_SYSTEM: HCT116 cells
UNIT_OF_MEASUREMENT: nM
IC50: 400

MOL: COc1ccc2[nH]c(SCc3ccc(C(=O)Nc4ccccc4O)cc3)nc2c1
STUDY_SYSTEM: HCT116 cells
UNIT_OF_MEASUREMENT: nM
IC50: 700

MOL: Nc1ccccc1NC(=O)c1ccc(CNc2nc(F)c(F)cc2F)cc1
STUDY_SYSTEM: HCT116 cells
UNIT_OF_MEASUREMENT: nM
IC50: 1000

A = COc1cc(NCc2ccc(C(=O)Nc3ccccc3N)cn2)cc(OC)c1OC
B = Cc1c(Cc2ccc(C(=O)Nc3ccccc3N)cc2)sc(NC(=O)Nc2ccccc2)c1C#N
Record comparison, field IC50: mark the lower of A and B . Answer with the label corresponding to your selection.
B

A = COc1ccc2[nH]c(SCc3ccc4oc(C(=O)Nc5ccccc5N)cc4c3)nc2c1
B = Nc1ccccc1NC(=O)c1ccc(CNc2cccc(OC(F)(F)F)c2)cc1
C = Nc1ccccc1NC(=O)c1ccc(-c2ccc(C(=O)Nc3ccccc3N)cc2)cc1
D = Nc1ccccc1NC(=O)c1ccc(N2CCOCC2)cc1
E = Nc1ccccc1NC(=O)c1ccc(CN2C(=O)COc3cccnc32)cc1
Give the ascending ranking of the items by reported IC50. Field: ranking. Enter the labels in the order requested.
A, E, B, C, D

src = patent US7868204B2
